Tested on: Bcap37
Assay: Cytotoxicity against human Bcap37 cells after 48 hrs by MTT assay
Format: functional, cell-based
Settings: Homo sapiens, Bcap37, 48 h; read-out: IC50
Measured Metric: IC50 (µM)
Write down the numeric answer in µM and omit the unit.

Request: Give the measured IC50 of O=C(CN1CCOCC1)N1N=C(c2cc3ccccc3oc2=O)CC1c1ccccc1C(F)(F)F (configuration not stated) .
Result: 14.2

Request: Next: NC(=O)C1CCN(CC(=O)N2N=C(c3cc4ccccc4oc3=O)CC2c2ccccc2)CC1 (configuration not stated)
Result: 18.5

Request: Next: CCC(=O)N1N=C(C)CC1c1cc(Br)ccc1O (configuration not stated)
Result: 20.8

Request: Next: CC1=NN(C(=O)CN2CCN(C(=O)OC(C)(C)C)CC2)C(c2ccccc2O)C1 (configuration not stated)
Result: 6.74

Request: Next: CC1=NN(C(=O)CN2CCSCC2)C(c2ccccc2O)C1 (configuration not stated)
Result: 20.6

Request: Next: CCCCCCN(CCCCCC)CC(=O)N1N=C(c2cc3ccccc3oc2=O)CC1c1ccccc1C(F)(F)F (configuration not stated)
Result: 12.2

Request: Next: CC(C)(C)OC(=O)N1CCN(CC(=O)N2N=C(c3cc4ccccc4oc3=O)CC2c2ccccc2)CC1 (configuration not stated)
Result: 29.7

Request: Next: CC1=NN(C(=O)CN2CCC(Cl)CC2)C(c2ccccc2O)C1 (configuration not stated)
Result: 28.6

Request: Next: CC(C)NCC(=O)N1N=C(c2cc3ccccc3oc2=O)CC1c1ccccc1 (configuration not stated)
Result: 2.21

Request: Next: O=C(CNC1CCCCC1)N1N=C(c2cc3ccccc3oc2=O)CC1c1ccccc1 (configuration not stated)
Result: 38.3

Request: Next: COc1ccccc1C1CC(C)=NN1C(=O)CN1CCC(OC)CC1 (configuration not stated)
Result: 18.8

Request: Next: COc1cccc2c1C(=O)c1c(O)c3c(c(O)c1C2=O)C[C@@](O)(C(=O)CO)C[C@@H]3O[C@H]1C[C@H](N)[C@H](O)[C@H](C)O1
Result: 1.12

Request: Next: CC(=O)Oc1ccccc1C1CC(C)=NN1C(=O)CN1CCC(O)CC1 (configuration not stated)
Result: 9.8

Request: Next: CC[N+](C)(CC)CC(=O)N1N=C(C)CC1c1ccccc1OC (configuration not stated)
Result: 5.15

Request: Next: CC1=NN(C(=O)CN2CC(C)CC(C)C2)C(c2ccccc2O)C1 (configuration not stated)
Result: 20.9

Request: Next: CN1CCN(CC(=O)N2N=C(c3cc4ccccc4oc3=O)CC2c2ccccc2)CC1 (configuration not stated)
Result: 16.9

Request: Next: CCC(=O)N1N=C(c2cc3ccccc3oc2=O)CC1c1ccccc1 (configuration not stated)
Result: 46.3

Request: Next: CC(=O)Oc1ccccc1C1CC(C)=NN1C(=O)CN1CCCCC1 (configuration not stated)
Result: 12.8

Request: Next: O=C(c1ccccc1Cl)N1N=C(c2cc3ccccc3oc2=O)CC1c1ccccc1 (configuration not stated)
Result: 9.3

Request: Next: CC(=O)Oc1ccccc1C1CC(C)=NN1C(=O)CN1CCC(C(C)=O)CC1 (configuration not stated)
Result: 20.1

Request: Next: Cc1ccc(S(=O)(=O)N2N=C(c3cc4ccccc4oc3=O)CC2c2ccccc2)cc1 (configuration not stated)
Result: 30.3

Request: Next: O=C(c1ccccc1)N1N=C(c2cc3ccccc3oc2=O)CC1c1ccccc1 (configuration not stated)
Result: 32.2

Request: Next: CC1=NN(C(=O)c2ccc(C)cc2)C(c2cc(Br)ccc2O)C1 (configuration not stated)
Result: 32.6

Request: Next: CC(C)(C)NCC(=O)N1N=C(c2cc3ccccc3oc2=O)CC1c1ccccc1 (configuration not stated)
Result: 36.2

Request: Next: CCC(=O)N1N=C(C)CC1c1cc(Br)cc(Br)c1O (configuration not stated)
Result: 40.1

Request: Next: CC1=NN(C(=O)CN(C(C)C)C(C)C)C(c2ccccc2O)C1 (configuration not stated)
Result: 4.96

Request: Next: CC1=NN(C(=O)CN2CCC(c3ccccc3)CC2)C(c2ccccc2O)C1 (configuration not stated)
Result: 33.7

Request: Next: CC1=NN(S(=O)(=O)c2ccc(C)cc2)C(c2cc(Br)ccc2O)C1 (configuration not stated)
Result: 36.8

Request: Next: CCN(CC)C1CCN(CC(=O)N2N=C(c3cc4ccccc4oc3=O)CC2c2ccccc2)CC1 (configuration not stated)
Result: 15.5

Request: Next: COc1ccccc1C1CC(C)=NN1C(=O)CN(C(C)C)C(C)C (configuration not stated)
Result: 34.2

Request: Next: CCN(CC)CC(=O)N1N=C(C)CC1c1ccccc1OC(C)=O (configuration not stated)
Result: 44.2

Request: Next: CCCNCC(=O)N1N=C(c2cc3ccccc3oc2=O)CC1c1ccccc1 (configuration not stated)
Result: 25.2

Request: Next: O=C(CCl)N1N=C(c2cc3ccccc3oc2=O)CC1c1ccccc1 (configuration not stated)
Result: 26.7

Request: Next: COc1ccccc1C1CC(C)=NN1C(=O)C[N+]1(C)CCCC1 (configuration not stated)
Result: 9.98

Request: Next: CC1=NN(C(=O)CN(CC(C)C)CC(C)C)C(c2ccccc2O)C1 (configuration not stated)
Result: 40.5

Request: Next: CC1=NN(C(=O)CN2CCN(C)CC2)C(c2ccccc2O)C1 (configuration not stated)
Result: 6.21

Request: Next: CC(C)CNCC(=O)N1N=C(c2cc3ccccc3oc2=O)CC1c1ccccc1 (configuration not stated)
Result: 6.3

Request: Next: O=c1oc2ccccc2cc1C1=NN(S(=O)(=O)c2ccc([N+](=O)[O-])cc2)C(c2ccccc2)C1 (configuration not stated)
Result: 37

Request: Next: COc1ccc(NCC(=O)N2N=C(C)CC2c2ccccc2O)cc1 (configuration not stated)
Result: 45.5

Request: Next: CCCCN(CCCC)CC(=O)N1N=C(c2cc3ccccc3oc2=O)CC1c1ccccc1 (configuration not stated)
Result: 3.37

Request: Next: CC(=O)Oc1ccccc1C1CC(C)=NN1C(=O)CN1CCCCC1C (configuration not stated)
Result: 17.9

Request: Next: CC(=O)Oc1ccccc1C1CC(C)=NN1C(=O)CN(C(C)C)C(C)C (configuration not stated)
Result: 19.4

Cited source: ChEMBL document CHEMBL3785019
